biological target: ScLsb4; experiment: SPOT peptide array binding signal intensity (averaged, normalized) (arbitrary units (background-subtracted, floor 0; scale differs between SH3 domains)); higher = stronger binding of the SH3 domain to the peptide
Reported SPOT peptide array binding signal intensity by item:

These recorded examples may help you get a feel for the data.
LASNSPPVYPKRIRH :: 45.5
QTREPNEPPPPSPAM :: 1.5
NFLRLLIGLPSQNEL :: ≤ 0

Turning now to a further binder:
"LRIKRKPVQTFFEFI" yielded SPOT peptide array binding signal intensity of 23
